# Procedure details: Half life in rat plasma at 2 uM
# Format: ADME, cell-free
Metric name: half-life at 2 µM (h)
Numeric only. Scale: h

[ask] Looking for the measured half-life at 2 µM of O=C(CSc1nc2c(c(=O)n1-c1ccccc1)SCC2)Nc1ccc(-c2ccccc2)cn1 , can you help?
[reply] 3.17

###

# EC50 values compiled below
# Target desc: Protein-serine O-palmitoleoyltransferase porcupine (Mus musculus, UniProt Q9JJJ7)
# Sequence (Q9JJJ7 whole entry): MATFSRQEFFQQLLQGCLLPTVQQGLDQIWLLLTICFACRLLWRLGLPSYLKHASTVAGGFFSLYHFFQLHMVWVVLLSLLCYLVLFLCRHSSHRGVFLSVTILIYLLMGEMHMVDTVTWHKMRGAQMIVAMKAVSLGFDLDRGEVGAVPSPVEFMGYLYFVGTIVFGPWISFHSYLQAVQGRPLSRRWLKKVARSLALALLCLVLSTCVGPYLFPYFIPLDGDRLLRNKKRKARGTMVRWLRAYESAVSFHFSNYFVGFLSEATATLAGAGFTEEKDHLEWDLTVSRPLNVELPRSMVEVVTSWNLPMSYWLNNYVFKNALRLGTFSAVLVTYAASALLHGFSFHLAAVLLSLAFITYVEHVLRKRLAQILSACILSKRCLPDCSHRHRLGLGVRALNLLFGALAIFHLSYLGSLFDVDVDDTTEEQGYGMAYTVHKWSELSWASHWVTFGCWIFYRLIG
# Procedure details: Inhibition of porcupine-mediated Wnt signalling in mouse L cells after 24 hrs by SuperTopflash reporter assay
Answer as a quantity: numeral, then unit.

Compound	Target desc	EC50
COc1ccc2nc(NC(=O)CSc3nc4c(c(=O)n3-c3ccc(F)cc3)SCC4)sc2c1	Protein-serine O-palmitoleoyltransferase porcupine (Mus musculus, UniProt Q9JJJ7)	250 nM
CCn1c(SCC(=O)Nc2nc3ccccc3s2)nc2c(c1=O)SC(C)C2 (centres undefined)	Protein-serine O-palmitoleoyltransferase porcupine (Mus musculus, UniProt Q9JJJ7)	4000 nM
O=C(CSc1nc2c(c(=O)n1-c1ccccc1)SCC2)Nc1ncc(-c2ccoc2)cn1	Protein-serine O-palmitoleoyltransferase porcupine (Mus musculus, UniProt Q9JJJ7)	1.5 nM

[ask] Looking for the measured EC50 of O=C(CNC(=O)c1nn(-c2ccccc2)c(=O)c2ccccc12)Nc1nc2ccc(F)cc2s1 , can you help?
[reply] 470 nM

[ask] Also check O=C(CSc1nc2c(c(=O)n1-c1ccccc1)SCC2)Nc1ccc(-c2cccs2)cn1
[reply] 0.3 nM

[ask] Also check COc1ccc2nc(NC(=O)CNC(=O)c3nn(-c4ccccc4OC)c(=O)c4ccccc34)sc2c1
[reply] 90 nM

[ask] Also check CCOc1ccc(NC(=O)CSc2nc3c(c(=O)n2-c2ccccc2)SCC3)cc1
[reply] 1000 nM

[ask] Also check Cc1ccc2nc(NC(=O)CNC(=O)c3nn(-c4ccccc4)c(=O)c4ccccc34)sc2c1
[reply] 35 nM

[ask] Also check Cc1ccc2nc(NC(=O)CNC(=O)c3nn(-c4ccc(F)cc4)c(=O)c4ccccc34)sc2c1
[reply] 100 nM

###

# EC50 values compiled below
# Target desc: UniProt Q9JJJ7
# Procedure details: Inhibition of porcupine-mediated Wnt signalling in mouse L cells after 24 hrs by SuperTopflash reporter assay
Numeric only. Scale: µM

Completed entries (count: 4):
Structure notation	Unit tag	EC50
COc1ccc2nc(NC(=O)CNC(=O)c3nn(-c4ccc(F)cc4)c(=O)c4ccccc34)sc2c1	µM	0.09
O=C(CSc1nc2c(c(=O)n1-c1ccc(F)cc1)SCC2)Nc1nc2ccc(C(F)(F)F)cc2s1	µM	0.1
COc1ccccc1-n1nc(C(=O)NCC(=O)Nc2nc3ccccc3s2)c2ccccc2c1=O	µM	10
O=C(CSc1nc2c(c(=O)n1-c1ccccc1)SCC2)Nc1ccc(-c2cccnc2)cn1	µM	0.001

[ask] Looking for the measured EC50 of COc1ccc(-n2c(SCC(=O)Nc3nc4ccc(OC)cc4s3)nc3c(c2=O)SCC3)cc1 , can you help?
[reply] 0.12

[ask] Also check O=C(CNC(=O)c1nn(-c2ccccc2)c(=O)c2ccccc12)Nc1nc2ccc([N+](=O)[O-])cc2s1
[reply] 0.24

[ask] Also check O=C(CSc1nc2c(c(=O)n1-c1ccccc1)SCC2)Nc1nc2ccc(Cl)cc2s1
[reply] 0.04

[ask] Also check O=C(CNC(=O)c1nn(-c2ccccc2)c(=O)c2ccccc12)Nc1nc2ccc(C(F)(F)F)cc2s1
[reply] 0.11

###

# Target desc: Protein-serine O-palmitoleoyltransferase porcupine (Mus musculus, UniProt Q9JJJ7)
# Procedure details: Inhibition of porcupine-mediated Wnt signalling in mouse L cells after 24 hrs by SuperTopflash reporter assay
# log10 of EC50 values compiled below
Scale type: logarithmic (base 10). Underlying EC50 unit: nM.

Completed entries (count: 3):
Molecule	log10 of EC50
O=C(CSc1nc2c(c(=O)n1-c1ccccc1)SCC2)Nc1ccc(-c2ccncc2)cc1	0.48
O=C(CSc1nc2c(c(=O)n1-c1ccccc1)SCC2)Nc1nc(-c2ccccc2)cs1	2.54
O=C(CNC(=O)c1nn(-c2ccccc2)c(=O)c2ccccc12)Nc1nc2ccc(Cl)cc2s1	1.48

[ask] Looking for the measured log10 of EC50 of O=C(CSc1nc2c(c(=O)n1-c1ccccc1)SCC2)Nc1ccc(-c2ccccc2)cc1 , can you help?
[reply] -0.12

[ask] Also check O=C(CNC(=O)c1nn(-c2ccc(F)cc2)c(=O)c2ccccc12)Nc1nc2ccc(Cl)cc2s1
[reply] 1.40

[ask] Also check O=C(CSc1nc2c(c(=O)n1-c1ccccc1)SCC2)Nc1ccc(-c2cncnc2)cn1
[reply] 0.74

[ask] Also check O=C(CSc1nc2c(c(=O)n1-c1ccccc1)SCC2)Nc1nc2ccc(C(F)(F)F)cc2s1
[reply] 1.60

[ask] Also check O=C(CSc1nc2c(c(=O)n1-c1ccccc1)SCC2)Nc1ccc(-c2ccco2)cn1
[reply] 0.54

[ask] Also check O=C(CNC(=O)c1nn(-c2ccccc2)c(=O)c2ccccc12)Nc1nc2ccccc2s1
[reply] 3.41

[ask] Also check COc1ccccc1-n1c(SCC(=O)Nc2nc3ccc(C)cc3s2)nc2c(c1=O)SCC2
[reply] 1.40

[ask] Also check COc1ccc(-n2nc(C(=O)NCC(=O)Nc3nc4ccc(C)cc4s3)c3ccccc3c2=O)cc1
[reply] 1.40

[ask] Also check COc1ccc2nc(NC(=O)CSc3nc4c(c(=O)n3-c3ccccc3OC)SCC4)sc2c1
[reply] 1.70

[ask] Also check O=C(CSc1nc2c(c(=O)n1-c1ccccc1)SCC2)Nc1ccc(-c2cccnc2)cc1
[reply] -0.35

[ask] Also check Cc1ccc2nc(NC(=O)CSc3nc4c(c(=O)n3-c3ccccc3)SCC4)sc2c1
[reply] 1.48

[ask] Also check COc1ccc(-n2c(SCC(=O)Nc3nc4ccc(Cl)cc4s3)nc3c(c2=O)SCC3)cc1
[reply] 1.54

[ask] Also check O=C(CSc1nc2c(c(=O)n1-c1ccccc1)SCC2)Nc1ncc(-c2ccccc2)s1
[reply] 1.74

###

# Target desc: Protein-serine O-palmitoleoyltransferase porcupine (Mus musculus)
# Procedure details: Inhibition of porcupine-mediated Wnt signalling in mouse L cells after 24 hrs by SuperTopflash reporter assay
# Format: cell-based
Metric name: EC50 (nM)
Numeric only. Scale: nM

Structure notation	Recorded result
O=C(CSc1nc2c(c(=O)n1-c1ccccc1)SCC2)Nc1ncc(-c2ccco2)cn1	3.5

Now let's try a different one.
[ask] Looking for the measured EC50 of COc1ccc(-n2nc(C(=O)NCC(=O)Nc3nc4ccc(OC)cc4s3)c3ccccc3c2=O)cc1 , can you help?
[reply] 60

###

# pEC50 values compiled below
# Target desc: Protein-serine O-palmitoleoyltransferase porcupine (Mus musculus)
# Procedure details: Inhibition of porcupine-mediated Wnt signalling in mouse L cells after 24 hrs by SuperTopflash reporter assay
// pEC50 is dimensionless: -log10 of concentration (M)

Completed entries (count: 3):
Structure notation	pEC50
O=C(CSc1nc2c(c(=O)n1-c1ccccc1)SCC2)Nc1ccc(-c2ccsc2)cn1	8.70
O=C(CSc1nc2c(c(=O)n1-c1ccccc1)SCC2)Nc1ccc(-c2ccccc2)cn1	9.30
COc1ccc2nc(NC(=O)CSc3nc4c(c(=O)n3-c3ccccc3)SCC4)sc2c1	7.40

[ask] Looking for the measured pEC50 of O=C(CSc1nc2c(c(=O)n1-c1ccccc1)SCC2)Nc1ncc(-c2ccccc2)cn1 , can you help?
[reply] 7.82

[ask] Also check COc1ccccc1-n1c(SCC(=O)Nc2nc3ccc(Cl)cc3s2)nc2c(c1=O)SCC2
[reply] 7.30

###

# Target desc: Protein-serine O-palmitoleoyltransferase porcupine (Mus musculus, UniProt Q9JJJ7)
# Sequence (Q9JJJ7 whole entry): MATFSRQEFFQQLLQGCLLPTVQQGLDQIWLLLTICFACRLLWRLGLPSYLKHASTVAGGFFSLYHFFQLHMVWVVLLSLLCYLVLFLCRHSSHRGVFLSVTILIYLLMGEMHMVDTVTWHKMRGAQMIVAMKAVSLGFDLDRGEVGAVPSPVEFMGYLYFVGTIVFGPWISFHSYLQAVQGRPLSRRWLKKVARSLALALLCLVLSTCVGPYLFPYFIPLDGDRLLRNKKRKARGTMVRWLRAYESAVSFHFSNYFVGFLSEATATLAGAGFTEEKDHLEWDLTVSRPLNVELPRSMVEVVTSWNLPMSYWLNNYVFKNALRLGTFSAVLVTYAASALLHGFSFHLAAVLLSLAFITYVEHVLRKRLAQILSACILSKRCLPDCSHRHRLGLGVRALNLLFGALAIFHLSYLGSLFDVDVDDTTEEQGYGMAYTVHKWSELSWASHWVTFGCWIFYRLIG
# Procedure details: Inhibition of porcupine-mediated Wnt signalling in mouse L cells after 24 hrs by SuperTopflash reporter assay
Simple rule here: EC50 less than 200 nM is YES, otherwise NO.

Sample answers from the record:
Molecule	Class
CC(=O)c1ccc(NC(=O)CSc2nc3c(c(=O)n2-c2ccccc2)SCC3)cc1	NO
O=C(CNC(=O)c1nn(-c2ccccc2)c(=O)c2ccccc12)Nc1nccs1	NO
CCOC(=O)c1ccc2nc(NC(=O)CNC(=O)c3nn(-c4ccccc4)c(=O)c4ccccc34)sc2c1	NO
O=C(CSc1nc2c(c(=O)n1-c1ccccc1)SCC2)Nc1ccccc1-c1ccccc1	NO
COc1ccc2nc(NC(=O)CNC(=O)c3ccc(=O)n(-c4ccccc4)c3)sc2c1	NO
O=C(CSc1nc2c(c(=O)n1-c1ccccc1)SCC2)Nc1ccc(-c2ccccn2)cc1	YES
COc1ccc(-n2nc(C(=O)NCC(=O)Nc3nc4ccccc4s3)c3ccccc3c2=O)cc1	NO
Cc1ccc2nc(NC(=O)CSc3nc4c(c(=O)n3C)SC(C)C4)sc2c1 (stereo unspecified)	YES

[ask] Problem: For the molecule COc1ccc(-n2nc(C(=O)NCC(=O)Nc3nc4ccc(Cl)cc4s3)c3ccccc3c2=O)cc1 , is EC50 under 200 nM?
[reply] YES
